Test system: interferon (α) (IFN-α)
Experiment: Cytokine induction in human cells: IFN-α secreted by PBMC into culture media (ELISA)
Type: cell-based
Conditions: Table 11; human PBMC; median where tested in more than one experiment
Description: Cytokine Induction in Human Cells An in vitro human blood cell system is used to assess cytokine induction. […] Following incubation the plates are centrifuged for 10 minutes at 1000 rpm (approximately 200×g) at 4° C. […] The samples are analyzed for IFN-α by ELISA and for TNF-α by IGEN/BioVeris Assay. […] IFN-α concentration is determined with a human multi-subtype calorimetric sandwich ELISA (Catalog Number 41105) from PBL Biomedical Laboratories, Piscataway, N.J. Results are expressed in pg/mL. […]
Property Label: Minimum Effective Concentration IFN (µM)
Note: unit µM is implicit; provide only the numeric part.

Recorded results for 10 compounds are shown here.
# Structure Notation, Assayed Target, Observed Result
data = [
    ("CS(=O)(=O)NCCCn1c(CCO)nc2c(N)nc3ccccc3c21", "interferon (α) (IFN-α)", 3.33),
    ("CCc1nc2c(N)nc3ccccc3c2n1CC(C)(C)CNS(C)(=O)=O", "interferon (α) (IFN-α)", 0.12),
    ("CCCCCCCCCCCCCCCC(=O)NCCOCCn1c(CCO)nc2c(N)nc3ccccc3c21", "interferon (α) (IFN-α)", 1.11),
    ("CC(C)NC(=O)NCCCn1c(CCO)nc2c(N)nc3ccccc3c21", "interferon (α) (IFN-α)", 0.37),
    ("CCCc1nc2c(N)nc3ccccc3c2n1CCCNS(C)(=O)=O", "interferon (α) (IFN-α)", 1.11),
    ("CN(CCOCCn1c(CCO)nc2c(N)nc3ccccc3c21)C(=O)C1CCCCC1", "interferon (α) (IFN-α)", 3.33),
    ("CCOCc1nc2c(N)nc3ccccc3c2n1CCNS(C)(=O)=O", "interferon (α) (IFN-α)", 0.12),
    ("CN(CCOCCn1c(CCO)nc2c(N)nc3ccccc3c21)S(C)(=O)=O", "interferon (α) (IFN-α)", 0.37),
    ("CN(CCOCCn1c(CCO)nc2c(N)nc3ccccc3c21)C(=O)c1ccccc1", "interferon (α) (IFN-α)", 3.33),
    ("COCCc1nc2c(N)nc3ccccc3c2n1CCCCCCCCNC(=O)c1ccccc1", "interferon (α) (IFN-α)", 0.014),
]

Q) Form field: reported Minimum Effective Concentration IFN of "Nc1nc2ccccc2c2c1nc(CCO)n2CCCCNC(=O)N1CCOCC1"
A) 1.11

Q) And then "COCCc1nc2c(N)nc3ccccc3c2n1CCCCNS(C)(=O)=O" , what is it?
A) 0.014

Q) And then "COCCc1nc2c(N)nc3ccccc3c2n1CCCCNC(=O)c1cnc2ccccc2n1" , what is it?
A) 0.014

Q) And then "COCCc1nc2c(N)nc3ccccc3c2n1CCCCNC(=O)c1nccc2ccccc12" , what is it?
A) 0.014

Q) And then "COCCc1nc2c(N)nc3ccccc3c2n1CCCNC(=O)c1ccccc1" , what is it?
A) 0.014

Q) And then "COCCc1nc2c(N)nc3ccccc3c2n1CC(C)(C)CN" , what is it?
A) 0.014

Q) And then "COCCc1nc2c(N)nc3ccccc3c2n1CCCCCS(C)(=O)=O" , what is it?
A) 0.014

Q) And then "COCCc1nc2c(N)nc3ccccc3c2n1CCCNC(=O)N1CCOCC1" , what is it?
A) 0.014

Q) And then "Nc1nc2ccccc2c2c1nc(CCO)n2CCCNC(=O)c1ccccc1" , what is it?
A) 0.37

Q) And then "Nc1nc2ccccc2c2c1nc(CCO)n2CCCCCCCCNC(=O)Nc1ccccc1" , what is it?
A) 0.37

Q) And then "CCOCc1nc2c(N)nc3ccccc3c2n1CC(C)(C)CNS(C)(=O)=O" , what is it?
A) 0.12

Q) And then "Nc1nc2ccccc2c2c1nc(CCO)n2CCCCNS(=O)(=O)c1ccc(F)cc1" , what is it?
A) 1.11

Q) And then "CS(=O)(=O)NCCCCCCCCn1c(CCO)nc2c(N)nc3ccccc3c21" , what is it?
A) 0.04

Q) And then "CCOCc1nc2c(N)nc3ccccc3c2n1CC(C)(C)NC(=O)NC(C)C" , what is it?
A) 0.37
